Target: mouse Tas2r144 (Mus musculus)
Construct: expressed in transfected cells; host or cells: HEK293T-Gα16gust44
Test: Calcium imaging assay (FLIPR), HEK293T-Gα16gust44 cells transfected with mouse Tas2r144
Assay type: cell-based
Conditions: Time 72.781 s
quantityName: RLU (RLU)

1. C[C@H](CCC(=O)NCCS(=O)(=O)O)[C@H]1CC[C@H]2[C@@H]3[C@H](O)C[C@@H]4C[C@H](O)CC[C@]4(C)[C@H]3C[C@H](O)[C@]12C [Taurocholic Acid, taurocholic acid]    573.499
2. C[C@H](CCC(=O)NCCS(=O)(=O)O)[C@H]1CC[C@H]2[C@@H]3CC[C@@H]4C[C@H](O)CC[C@]4(C)[C@H]3CC[C@]12C [Taurolithocholic Acid, taurolithocholic acid]    417.687
3. C[C@H](CCC(=O)NCC(=O)O)[C@H]1CC[C@H]2[C@@H]3[C@H](O)C[C@@H]4C[C@H](O)CC[C@]4(C)[C@H]3C[C@H](O)[C@]12C [Glycocholic Acid, glycocholic acid]    432.914
4. C[C@H](CCC(=O)O)[C@H]1CC[C@H]2[C@@H]3[C@H](O)C[C@@H]4C[C@H](O)CC[C@]4(C)[C@H]3C[C@H](O)[C@]12C [Cholic Acid, cholic acid]    655.408

---

Target: human TAS2R14 (Homo sapiens, UniProt Q9NYV8)
Construct: expressed in transfected cells; host or cells: HEK293T-Gα16gust44
Sequence (Q9NYV8 whole entry): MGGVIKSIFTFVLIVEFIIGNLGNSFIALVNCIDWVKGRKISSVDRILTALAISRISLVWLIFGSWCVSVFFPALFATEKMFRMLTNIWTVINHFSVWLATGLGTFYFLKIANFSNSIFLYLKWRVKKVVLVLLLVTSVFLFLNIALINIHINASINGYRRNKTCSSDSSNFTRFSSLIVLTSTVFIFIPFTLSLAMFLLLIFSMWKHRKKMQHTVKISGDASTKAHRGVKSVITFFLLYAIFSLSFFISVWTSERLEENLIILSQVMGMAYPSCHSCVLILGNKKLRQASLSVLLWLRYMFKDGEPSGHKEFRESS
Assay: Calcium imaging assay (FLIPR), HEK293T-Gα16gust44 cells transfected with human TAS2R14
Assay type: cell-based
Conditions: TAS2R14 trace; Time (s) 24.797 (Chenodeoxycholic Acid 24.781)
quantityName: RLU (RLU)

1. C[C@H](CCC(=O)O)[C@H]1CC[C@H]2[C@@H]3[C@H](O)C[C@@H]4C[C@H](O)CC[C@]4(C)[C@H]3C[C@H](O)[C@]12C    -6.39
2. C[C@H](CCC(=O)NCCS(=O)(=O)O)[C@H]1CC[C@H]2[C@@H]3CC[C@@H]4C[C@H](O)CC[C@]4(C)[C@H]3CC[C@]12C    -48.2767
3. C[C@H](CCC(=O)NCC(=O)O)[C@H]1CC[C@H]2[C@@H]3[C@H](O)C[C@@H]4C[C@H](O)CC[C@]4(C)[C@H]3C[C@H](O)[C@]12C    -11.7946
4. C[C@H](CCC(=O)NCCS(=O)(=O)O)[C@H]1CC[C@H]2[C@@H]3[C@H](O)C[C@@H]4C[C@H](O)CC[C@]4(C)[C@H]3C[C@H](O)[C@]12C    -25.1873
5. C[C@H](CCC(=O)O)[C@H]1CC[C@H]2[C@@H]3[C@H](O)C[C@@H]4C[C@H](O)CC[C@]4(C)[C@H]3CC[C@]12C    188.481

---

Target: human TAS2R4 (Homo sapiens)
Construct: expressed in transfected cells; host or cells: HEK293T-Gα16gust44
Sequence (Q9NYW5 1-299): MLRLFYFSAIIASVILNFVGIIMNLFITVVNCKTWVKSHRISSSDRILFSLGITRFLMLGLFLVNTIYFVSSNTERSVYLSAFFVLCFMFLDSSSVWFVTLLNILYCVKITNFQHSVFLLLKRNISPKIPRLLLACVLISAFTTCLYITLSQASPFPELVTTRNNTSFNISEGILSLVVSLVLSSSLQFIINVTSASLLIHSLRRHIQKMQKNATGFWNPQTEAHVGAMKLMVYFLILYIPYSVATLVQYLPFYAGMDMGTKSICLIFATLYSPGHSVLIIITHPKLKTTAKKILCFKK
Experiment: Calcium imaging assay (FLIPR), HEK293T-Gα16gust44 cells transfected with human TAS2R4; note: test concentration or dose not given here
Assay type: cell-based
Conditions: Time (s) 22.781 (TCA, TLCA: 22.782)
Recorded RLU, fluorescence trace by entry
quantityName: RLU, fluorescence trace (RLU)

1) C[C@H](CCC(=O)O)[C@H]1CC[C@H]2[C@@H]3[C@H](O)C[C@@H]4C[C@H](O)CC[C@]4(C)[C@H]3C[C@H](O)[C@]12C    12.9621
2) C[C@H](CCC(=O)NCCS(=O)(=O)O)[C@H]1CC[C@H]2[C@@H]3[C@H](O)C[C@@H]4C[C@H](O)CC[C@]4(C)[C@H]3C[C@H](O)[C@]12C    3.151
3) C[C@H](CCC(=O)NCC(=O)O)[C@H]1CC[C@H]2[C@@H]3[C@H](O)C[C@@H]4C[C@H](O)CC[C@]4(C)[C@H]3C[C@H](O)[C@]12C    15.1075
4) C[C@H](CCC(=O)O)[C@H]1CC[C@H]2[C@@H]3[C@@H](O)C[C@@H]4C[C@H](O)CC[C@]4(C)[C@H]3CC[C@]12C    -20.8274
5) C[C@H](CCC(=O)NCCS(=O)(=O)O)[C@H]1CC[C@H]2[C@@H]3CC[C@@H]4C[C@H](O)CC[C@]4(C)[C@H]3CC[C@]12C    22.9324
6) C[C@H](CCC(=O)O)[C@H]1CC[C@H]2[C@@H]3CC[C@@H]4C[C@H](O)CC[C@]4(C)[C@H]3C[C@H](O)[C@]12C    -71.6568

---

Target: mouse Tas2r144 (Mus musculus)
Construct: expressed in transfected cells; host or cells: HEK293T-Gα16gust44
Assay: Calcium imaging assay (FLIPR), HEK293T-Gα16gust44 cells transfected with mouse Tas2r144
Format: cell-based
Details: Time 68.781 s
quantityName: RLU (RLU)

1. C[C@H](CCC(=O)NCCS(=O)(=O)O)[C@H]1CC[C@H]2[C@@H]3CC[C@@H]4C[C@H](O)CC[C@]4(C)[C@H]3CC[C@]12C    426.421
2. C[C@H](CCC(=O)NCCS(=O)(=O)O)[C@H]1CC[C@H]2[C@@H]3[C@H](O)C[C@@H]4C[C@H](O)CC[C@]4(C)[C@H]3C[C@H](O)[C@]12C    577.506
3. C[C@H](CCC(=O)NCC(=O)O)[C@H]1CC[C@H]2[C@@H]3[C@H](O)C[C@@H]4C[C@H](O)CC[C@]4(C)[C@H]3C[C@H](O)[C@]12C    427.827
4. C[C@H](CCC(=O)O)[C@H]1CC[C@H]2[C@@H]3[C@H](O)C[C@@H]4C[C@H](O)CC[C@]4(C)[C@H]3C[C@H](O)[C@]12C    635.725

---

Target: mouse Tas2r144 (Mus musculus, UniProt Q7TQB8)
Construct: expressed in transfected cells; host or cells: HEK293T-Gα16gust44
Sequence (Q7TQB8 whole entry): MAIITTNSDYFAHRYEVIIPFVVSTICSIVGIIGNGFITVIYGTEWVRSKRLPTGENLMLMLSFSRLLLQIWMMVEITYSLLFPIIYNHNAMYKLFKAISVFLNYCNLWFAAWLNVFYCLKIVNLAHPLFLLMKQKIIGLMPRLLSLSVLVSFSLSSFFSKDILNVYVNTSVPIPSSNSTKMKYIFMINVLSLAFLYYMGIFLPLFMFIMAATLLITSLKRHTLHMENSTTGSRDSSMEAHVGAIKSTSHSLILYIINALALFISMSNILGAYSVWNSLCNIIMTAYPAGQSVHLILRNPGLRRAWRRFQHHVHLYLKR
Assay: Calcium imaging assay (FLIPR), HEK293T-Gα16gust44 cells transfected with mouse Tas2r144
Format: cell-based
Details: Time 12 s
quantityName: RLU

1. C[C@H](CCC(=O)NCCS(=O)(=O)O)[C@H]1CC[C@H]2[C@@H]3CC[C@@H]4C[C@H](O)CC[C@]4(C)[C@H]3CC[C@]12C    10.4417 RLU
2. C[C@H](CCC(=O)NCCS(=O)(=O)O)[C@H]1CC[C@H]2[C@@H]3[C@H](O)C[C@@H]4C[C@H](O)CC[C@]4(C)[C@H]3C[C@H](O)[C@]12C    10.0521 RLU
3. C[C@H](CCC(=O)NCC(=O)O)[C@H]1CC[C@H]2[C@@H]3[C@H](O)C[C@@H]4C[C@H](O)CC[C@]4(C)[C@H]3C[C@H](O)[C@]12C    -13.8091 RLU
4. C[C@H](CCC(=O)O)[C@H]1CC[C@H]2[C@@H]3[C@H](O)C[C@@H]4C[C@H](O)CC[C@]4(C)[C@H]3C[C@H](O)[C@]12C    34.8706 RLU

---

Here the recorded RLU is given for each entry.
Target: human TAS2R14 (Homo sapiens)
Construct: expressed in transfected cells; host or cells: HEK293T-Gα16gust44
Assay: Calcium imaging assay (FLIPR), HEK293T-Gα16gust44 cells transfected with human TAS2R14
Assay type: cell-based
Settings: TAS2R14 trace; Time (s) 86.797 (Chenodeoxycholic Acid 86.781)
quantityName: RLU (RLU)

1) C[C@H](CCC(=O)NCCS(=O)(=O)O)[C@H]1CC[C@H]2[C@@H]3CC[C@@H]4C[C@H](O)CC[C@]4(C)[C@H]3CC[C@]12C    303.737
2) C[C@H](CCC(=O)O)[C@H]1CC[C@H]2[C@@H]3[C@H](O)C[C@@H]4C[C@H](O)CC[C@]4(C)[C@H]3CC[C@]12C    660.126
3) C[C@H](CCC(=O)NCCS(=O)(=O)O)[C@H]1CC[C@H]2[C@@H]3[C@H](O)C[C@@H]4C[C@H](O)CC[C@]4(C)[C@H]3C[C@H](O)[C@]12C    758.133
4) C[C@H](CCC(=O)NCC(=O)O)[C@H]1CC[C@H]2[C@@H]3[C@H](O)C[C@@H]4C[C@H](O)CC[C@]4(C)[C@H]3C[C@H](O)[C@]12C    784.026
5) C[C@H](CCC(=O)O)[C@H]1CC[C@H]2[C@@H]3[C@H](O)C[C@@H]4C[C@H](O)CC[C@]4(C)[C@H]3C[C@H](O)[C@]12C    1075.38
